These measurements were taken from ChEMBL document CHEMBL1201862.

- Test system: HOP-62
- Assay Comment: NCI tumour cell line growth inhibition, 48 h
Calls of active or inactive are those of the source. No stated cut-off is given here; in the data, active = GI50 up to about 1.1 µM and inactive = higher.
So I've got a bunch of compounds here, and I need their GI50 values.

Items follow; give GI50 for each.
1. COC(=O)C1C(=O)NC2(C)CC1c1ccccc1O2 (configuration not stated)
2. CCN1CCC(O)(C(C(=O)O)c2ccccc2)CC1 (configuration not stated)
3. O=c1[nH]c2cc3cccnc3c(Cl)c2nc1C(F)(F)F
4. O=[N+]([O-])c1cccc(-c2ccc([C@H]3CC(c4ccc(Cl)cc4)=NN3)o2)c1
5. OCCCCCCCCCCCOc1ccc(C2OCC3(CO2)COC(c2ccc(OCCCCCCCCCCCO)cc2)OC3)cc1 (configuration not stated)
6. COc1cccc2c1OC(c1ccc(Cl)cc1)C([N+](=O)[O-])=C2 (configuration not stated)
7. CCOC(=O)Nc1ccc2c(c1)N(C(=O)CCN(CC)CC)c1ccccc1S2

RESULT:
1: > 10 µM (inactive); 2: > 100 µM (inactive); 3: 29.3 µM (inactive); 4: 20.3 µM (inactive); 5: > 50 µM (inactive); 6: 2.1 µM (inactive); 7: 33.9 µM (inactive)

Items follow; give GI50 for each.
1. COC(=O)C(C(=O)C(=O)Nc1nnc(S)[nH]1)c1csc(-n2nc(-c3ccccc3)cc2-c2ccccc2)n1 (configuration not stated)
2. CCCCCCCCCCCCCCNCC(OCC)OCC
3. COc1ccc(N2C(=O)C3c4[nH]c5cccc(Cl)c5c4C4CCC(C(C)(C)C)CC4C3C2=O)cc1 (configuration not stated)
4. O=C(O)C(Cc1ccccc1)N1C(=O)c2ccccc2C1=O (configuration not stated)
5. O=C1/C(=C/c2cccnc2)SC(=S)N1Cc1ccco1
6. O=C1CSC(c2ccccc2[N+](=O)[O-])N1c1ccc(-c2ccc(-n3c(-c4ccccc4)nc4ccccc4c3=O)cc2)cc1 (configuration not stated)
7. CON(C)c1nc(N(C)OC)nc(N(C)OC)n1
8. COc1cc(OC)c(OC)cc1/C=C/c1ccccn1

RESULT:
1. > 100 µM (inactive)
2. 16.5 µM (inactive)
3. 16.3 µM (inactive)
4. > 100 µM (inactive)
5. 5.77 µM (inactive)
6. > 100 µM (inactive)
7. > 10 µM (inactive)
8. > 10 µM (inactive)

###

- Tested on: OVCAR-5
- Assay Comment: NCI tumour cell line growth inhibition, 48 h
Calls of active or inactive are those of the source. No stated cut-off is given here; in the data, active = GI50 up to about 1.1 µM and inactive = higher.
Choose the fitting class; nothing outside active, inactive is accepted.

Completed entries (count: 5):
CC1=NN(c2nc(N)nc(-c3ccccc3S(N)(=O)=O)n2)C(C)(C)C1 = inactive
Cc1cc(OC2OC(CO)C(O)C(O)C2O)ccc1O (stereo not drawn) = inactive
O=C1C(Cl)C(c2ccccc2)N1n1cnc2ccccc2c1=O (stereo not drawn) = inactive
N#CCCN(CCN(CCN(C(=O)Nc1ccccc1)c1ccccc1)C(=O)Nc1ccccc1)C(=O)Nc1ccccc1 = inactive
COc1cc2c(c3oc4c(O)cccc4c(=O)c13)CC(C(C)(O)CCl)O2 (stereo not drawn) = inactive

Turning now to a further compound:
QUERY: Could you please tell me the result logged for S=c1scc(-c2ccc(Cl)cc2)n1OC1CCCC1 in this assay?
RESULT: inactive

###

So I've got a bunch of compounds here, and I need their GI50 values.
- Tested on: A498
- Assay Comment: NCI tumour cell line growth inhibition, 48 h
Activity calls are given as the source filed them. No stated cut-off is given here; in the data, active = GI50 up to about 1.1 µM and inactive = higher.

S=C(/N=C1/NCC(CN2CCN(c3ccccc3)CC2)O1)Nc1ccccc1 (stereo unspecified) = > 100 µM (inactive)
CC1C2(C)OC(=N)C(C#N)(C(c3ccco3)O2)C1(C#N)C#N (stereo unspecified) = > 100 µM (inactive)
CCOC(=O)c1oc2ccc(OC)c3c2c1CCC3 = > 100 µM (inactive)

Items follow; give GI50 for each.
1. O=C(O)CCC(C(=O)O)N1C(=O)c2ccccc2C1=O (stereo unspecified)
2. COc1ccccc1-c1nc(-c2ccccc2O)n[nH]1
3. O=[N+]([O-])C(=C(Nc1cccc2cccnc12)Nc1cccc2cccnc12)C(Cl)=C(Cl)Cl
4. O=C(CC(C(=O)c1ccco1)c1ccco1)c1ccco1 (stereo unspecified)
5. CC1=C2C(O)C(C(C)C(=O)NC(C)C)CCC2(C)C=CC1=O (stereo unspecified)
6. CC1=C(C(=O)CC(=O)C(=O)Nc2ccc(C)c(C)c2)Sc2ccccc2N1
7. C[n+]1c(-c2ccc(/C=N\N3CCN(/N=C/c4ccc(-c5cn6ccsc6[n+]5C)cc4)CC3)cc2)cn2ccsc21
8. CSC12c3cc(C)n(-c4ccc(I)cc4)c3CC(C)(C)CN1C(=O)C2Oc1ccccc1 (stereo unspecified)

RESULT:
1: > 100 µM (inactive); 2: > 100 µM (inactive); 3: > 100 µM (inactive); 4: > 100 µM (inactive); 5: > 100 µM (inactive); 6: > 100 µM (inactive); 7: 23.1 µM (inactive); 8: 97.5 µM (inactive)
